# test: rescue of polyQ-huntingtin neuronal dysfunction in worms, whole organism, C. elegans mechanosensory neurons, N-terminal huntingtin (AID 1599)
# experimental_conditions: touch response, stronger effect = higher value
Potency and affinity values are given separately.
Give class 1 when the value for rescue above control is at least 0. Give class 0 when it is less.

Query: Check the entry O=C1CN=C(c2ccccc2)c2cc(Cl)ccc2N1 : does rescue above control equal or exceed 0?
Result: class 1

Query: Check the entry O=C1C=CC(=O)c2c(O)cccc21 : does rescue above control equal or exceed 0?
Result: class 1

Query: Check the entry CC1=NCCc2c1[nH]c1cc(O)ccc21 : does rescue above control equal or exceed 0?
Result: class 1

###

Provide the recorded insulin secretion stimulation for the entries that follow.
# test: stimulators of insulin release from INS-1E, primary screen, cell-based, 5 mM glucose, NPC library (AID 1117329)
# experimental_conditions: rat INS-1E insulin secretion, at 10 µM, stronger effect = higher value
Answers are plain numbers, in %.

> print(dat)
                                smiles.data              reported.property  numeric.result
1  O=C(CCCN1CCC2(CC1)C(=O)NCN2c1ccccc1)c1ccc(F)cc1  insulin secretion stimulation             1.8
2  CCN(CC)Cc1nccn1-c1ccc([N+](=O)[O-])cc1C(=O)c1ccccc1Cl  insulin secretion stimulation             7.4
3                        COc1ccccc1N1CCNCC1  insulin secretion stimulation            -0.2

Quick one: give me insulin secretion stimulation for each item below, same order please.
1. CCOP(=S)(OCC)Oc1ccc2c(C)c(Cl)c(=O)oc2c1
2. CN[C@@H](C)[C@H](O)c1ccccc1
3. NP(N)(=O)NC(=O)c1ccc(F)cc1
4. CC(C)(C)c1ccc(O)cc1

Result:
1. -1.3
2. 0
3. -0.7
4. 0

###

# test: stimulators of insulin release from INS-1E, primary screen, cell-based, 5 mM glucose, NPC library (AID 1117329)
# experimental_conditions: rat INS-1E insulin secretion, at 10 µM, stronger effect = higher value
reported_property: insulin secretion stimulation (%)
One number for each entry, in %.

Examples from the recorded data:
> print(dat)
                                   compound              reported.property  numeric.result
1  CCCC(C)(COC(N)=O)COC(=O)NC(C)C (stereo not drawn)  insulin secretion stimulation             3.4
2  C=CCOC(Cn1ccnc1)c1ccc(Cl)cc1Cl (stereo not drawn)  insulin secretion stimulation             6.1

Consider the additional compound presented here.
Query: Assign insulin secretion stimulation to the following record: CCC(C)(C)c1ccc(O)cc1
Result: -1

###

# test: inhibitors of mitochondrial cytochrome c release, biochemical, purified mitochondria (AID 1603);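 further: mouse liver mitochondria challenged with calcium chloride; signal normalized to the plate average as 100%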
# experimental_conditions: stronger effect = lower value
We label by threshold. Values of cytochrome c release ratio strictly beneath 1 are Yes. Values of 1 and up are No.

compound	answer_label
C[C@@]1(C(=O)O)CC[C@]2(C)CC[C@]3(C)C4=CC=C5C=C(O)C(=O)C=C5[C@]4(C)CC[C@@]3(C)[C@@H]2C1	No
C[C@]12CCC3C(CC[C@@H]4C[C@H](O)CC[C@]34C)C1CCC2=O (stereo partly drawn)	Yes
C[C@@H]1C[C@@H]([C@H](O)CC2CC(=O)NC(=O)C2)C(=O)[C@@H](C)C1	No
C/C=C(/C)C(=O)O[C@H]1CC[C@@]2(C)[C@@H]3CC[C@H]4[C@]5(O)C[C@H](O)[C@@]6(O)[C@@H](CN7C[C@@H](C)CC[C@H]7[C@@]6(C)O)[C@]5(O)C[C@@]42O[C@]13O	Yes
O=C1CCO1	No

Query: A record lists CO[C@H]1[C@H](O)[C@@H](O[C@H]2CC[C@]3(C=O)C4CC[C@]5(C)[C@@H](C6=CC(=O)OC6)CC[C@]5(O)C4CC[C@@H]3C2)O[C@@H](C)[C@@H]1O (stereo partly drawn) . Is its cytochrome c release ratio below 1?
Result: No
